# system: human AR (Homo sapiens)
# Sequence (P10275 1-920): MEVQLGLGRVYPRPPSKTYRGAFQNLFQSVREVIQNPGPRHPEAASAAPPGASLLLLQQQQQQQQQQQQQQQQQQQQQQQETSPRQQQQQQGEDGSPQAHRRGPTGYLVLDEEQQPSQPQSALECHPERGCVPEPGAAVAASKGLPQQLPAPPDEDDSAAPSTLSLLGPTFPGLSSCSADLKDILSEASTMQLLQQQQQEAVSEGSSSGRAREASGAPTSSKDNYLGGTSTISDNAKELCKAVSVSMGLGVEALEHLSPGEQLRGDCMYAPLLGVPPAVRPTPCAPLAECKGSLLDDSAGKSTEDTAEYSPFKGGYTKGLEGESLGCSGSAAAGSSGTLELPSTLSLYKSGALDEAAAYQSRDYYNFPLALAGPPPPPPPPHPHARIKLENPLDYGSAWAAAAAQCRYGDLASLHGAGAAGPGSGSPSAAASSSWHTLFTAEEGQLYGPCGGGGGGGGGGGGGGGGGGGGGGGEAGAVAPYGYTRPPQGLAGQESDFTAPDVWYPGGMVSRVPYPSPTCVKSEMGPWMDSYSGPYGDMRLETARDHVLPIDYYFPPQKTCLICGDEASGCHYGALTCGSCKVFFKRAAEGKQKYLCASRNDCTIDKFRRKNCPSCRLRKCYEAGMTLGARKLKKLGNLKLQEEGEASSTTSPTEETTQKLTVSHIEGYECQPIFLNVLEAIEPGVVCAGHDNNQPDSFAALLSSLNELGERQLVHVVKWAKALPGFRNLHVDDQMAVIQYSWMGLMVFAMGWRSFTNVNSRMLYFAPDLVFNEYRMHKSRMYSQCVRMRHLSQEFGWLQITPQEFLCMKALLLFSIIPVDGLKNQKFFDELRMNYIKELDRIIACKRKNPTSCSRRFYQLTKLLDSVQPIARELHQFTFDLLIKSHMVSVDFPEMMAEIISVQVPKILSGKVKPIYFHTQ
# experiment.description: AR whole cell competitive binding assay (COS-1 cells, 3H-DHT)
# conditions.used: 1 nM 3H-DHT, Cheng-Prusoff
# reported log10 of Ki; entries follow
# log10 transformed; quantity=Ki; unit=nM

For orientation, consider the following solved cases.
{"molecule": "Cn1c(=O)cc(C(F)(F)F)c2cc(N(CC(F)(F)F)CC(F)(F)F)ccc21 [Compound 297]", "log10 of Ki": 1.76}
{"molecule": "CC1(C)OC(=S)Nc2ccc(C3=CCCCC3)cc21 [Compound 689]", "log10 of Ki": 2.12}

[in] Give reported log10 of Ki value for CCN(CC(C)C)c1ccc2[nH]c(=O)cc(C(F)(F)F)c2c1 [Compound 241]
[out] 1.48

[in] Give reported log10 of Ki value for CCCN(CC(F)(F)F)c1ccc2[nH]c(=O)cc(C)c2c1 [Compound 374]
[out] 0.79

[in] Give reported log10 of Ki value for O=c1cc(C(F)(F)F)c2cc(C3=CCCC3)ccc2[nH]1 [Compound 632]
[out] 2.05
